Sourced from paper PMC6767204

Target sequence: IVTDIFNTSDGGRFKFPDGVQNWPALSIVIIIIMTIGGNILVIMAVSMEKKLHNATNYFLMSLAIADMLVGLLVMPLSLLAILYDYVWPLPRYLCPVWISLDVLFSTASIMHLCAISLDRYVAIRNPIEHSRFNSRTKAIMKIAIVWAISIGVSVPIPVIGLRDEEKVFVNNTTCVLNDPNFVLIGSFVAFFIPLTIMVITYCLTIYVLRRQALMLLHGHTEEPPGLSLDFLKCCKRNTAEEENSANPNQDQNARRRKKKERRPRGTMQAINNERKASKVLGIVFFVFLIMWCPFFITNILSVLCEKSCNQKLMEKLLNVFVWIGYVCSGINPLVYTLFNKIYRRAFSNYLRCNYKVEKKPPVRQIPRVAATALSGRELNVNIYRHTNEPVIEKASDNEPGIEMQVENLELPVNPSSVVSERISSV
pKi: −log10 of the molar value.
Use 7 as the dividing line for pKi, with the line itself on the 1 (yes) side and lower values as 0 (no).

molecule | label
C[C@@H](Oc1nc(N2CCCNCC2)ncc1F)c1ccc(F)cc1 [10f] | 1 (yes)
C[C@@H](Oc1nc(N2C[C@H]3CNC[C@H]3C2)ncc1F)c1ccc(F)cc1 [10h] | 0 (no)
C[C@@H](Oc1nc(N2CCC3(CCNC3)C2)ncc1F)c1ccc(F)cc1 (stereo partly drawn) [10g] | 0 (no)
C[C@@H]1CNCCN1c1ncc(F)c(O[C@H](C)c2ccc(F)cc2)n1 [compound 8, reference compound] | 1 (yes)
C[C@@H](Oc1nc(N2C[C@H]3CNC[C@H]3C2)ncc1F)c1cccc(F)c1 [10c] | 0 (no)
C[C@@H](Oc1nc(N[C@H]2CCNC2)ncc1F)c1cccc(F)c1 [10e] | 0 (no)
C[C@@H](Oc1nc(N2CCCNCC2)ncc1F)c1cccc(F)c1 [10a] | 1 (yes)

* * *

- target or system: 5-HT1D receptor (Homo sapiens, UniProt P28221)
- Construct: expressed in transfected cells; host or cells: HEK293 or CHO
- Sequence (P28221 whole entry): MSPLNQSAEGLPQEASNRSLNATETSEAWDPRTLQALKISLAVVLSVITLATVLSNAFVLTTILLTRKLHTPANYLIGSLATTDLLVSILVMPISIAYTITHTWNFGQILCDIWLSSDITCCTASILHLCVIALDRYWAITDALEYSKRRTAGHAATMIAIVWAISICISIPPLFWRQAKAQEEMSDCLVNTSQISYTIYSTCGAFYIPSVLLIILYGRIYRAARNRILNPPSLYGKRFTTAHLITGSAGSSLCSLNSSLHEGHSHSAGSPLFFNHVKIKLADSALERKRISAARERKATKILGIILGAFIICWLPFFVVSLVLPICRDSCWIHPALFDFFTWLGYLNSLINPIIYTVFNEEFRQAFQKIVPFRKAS
- method: 5-HT receptor radioligand binding affinity assay, 1D
# Ki per record follows

molecule | target or system | unit abbreviation | Ki
C[C@@H](Oc1nc(N2CCCNCC2)ncc1F)c1cccc(F)c1 [10a] | 5-HT1D receptor (Homo sapiens, UniProt P28221) | nM | 679
C[C@@H](Oc1nc(N2CCCNCC2)ncc1F)c1ccc(F)cc1 [10f] | 5-HT1D receptor (Homo sapiens, UniProt P28221) | nM | 937
C[C@@H]1CNCCN1c1ncc(F)c(O[C@H](C)c2ccc(F)cc2)n1 [compound 8, reference compound] | 5-HT1D receptor (Homo sapiens, UniProt P28221) | nM | 1050

* * *

- target or system: 5-HT2C receptor (Homo sapiens, UniProt P28335)
- Sequence (P28335 33-458): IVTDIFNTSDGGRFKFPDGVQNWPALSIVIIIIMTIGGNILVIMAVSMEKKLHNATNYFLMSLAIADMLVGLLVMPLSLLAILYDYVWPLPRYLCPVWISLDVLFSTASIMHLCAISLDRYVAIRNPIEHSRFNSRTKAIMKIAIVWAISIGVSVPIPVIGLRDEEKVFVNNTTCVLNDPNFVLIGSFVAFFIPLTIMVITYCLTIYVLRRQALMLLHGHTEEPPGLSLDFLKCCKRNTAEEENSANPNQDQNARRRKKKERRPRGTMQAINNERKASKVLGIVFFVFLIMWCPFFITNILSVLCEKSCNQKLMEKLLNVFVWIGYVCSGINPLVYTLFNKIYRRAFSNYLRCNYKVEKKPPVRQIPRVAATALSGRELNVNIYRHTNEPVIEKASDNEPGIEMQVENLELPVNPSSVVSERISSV
- method: 5-HT2C receptor cell-based functional assay (agonist mode, fluorescence-based)
- details: HEK293, read-out: %activation (10 μM), 10 μM; recombinant human HEK-293 cells; Table 1
# activation at 10 µM per record follows
observed property: activation at 10 µM (%)

molecule | observed property | cmp | quantitative result
Fc1cccc(Oc2cnc(N3CCNCC3)nc2)c1 [9a] | activation at 10 µM | = | 7
Fc1cccc(COc2cnc(N3CCNCC3)nc2)c1 [9b] | activation at 10 µM | > | 50
Fc1ccc(COc2cnc(N3CCNCC3)nc2)cc1 [9e] | activation at 10 µM | = | 18
Fc1ccc(Oc2cnc(N3CCNCC3)nc2)cc1 [9d] | activation at 10 µM | = | 5
Fc1cccc(CCOc2cnc(N3CCNCC3)nc2)c1 [9c] | activation at 10 µM | = | 15
Fc1ccc(CCOc2cnc(N3CCNCC3)nc2)cc1 [9f] | activation at 10 µM | = | 4

* * *

- target or system: 5-HT2C receptor (Homo sapiens)
- method: 5-HT2C receptor cell-based functional assay (agonist mode, fluorescence-based)
- details: Table 2; serotonin as reference compound

compound | target or system | %activation [%]
C[C@@H](Oc1nc(N2CCCNCC2)ncc1F)c1cccc(F)c1 [10a] | 5-HT2C receptor (Homo sapiens) | 81.0
C[C@@H](Oc1nc(N2C[C@H]3CNC[C@H]3C2)ncc1F)c1cccc(F)c1 [10c] | 5-HT2C receptor (Homo sapiens) | 29.5
C[C@@H](Oc1nc(N2C[C@H]3CNC[C@H]3C2)ncc1F)c1ccc(F)cc1 [10h] | 5-HT2C receptor (Homo sapiens) | 10.1

* * *

- target or system: 5-HT2B receptor (Homo sapiens, UniProt P41595)
- Construct: expressed in transfected cells; host or cells: HEK293 or CHO
- Sequence (P41595 whole entry): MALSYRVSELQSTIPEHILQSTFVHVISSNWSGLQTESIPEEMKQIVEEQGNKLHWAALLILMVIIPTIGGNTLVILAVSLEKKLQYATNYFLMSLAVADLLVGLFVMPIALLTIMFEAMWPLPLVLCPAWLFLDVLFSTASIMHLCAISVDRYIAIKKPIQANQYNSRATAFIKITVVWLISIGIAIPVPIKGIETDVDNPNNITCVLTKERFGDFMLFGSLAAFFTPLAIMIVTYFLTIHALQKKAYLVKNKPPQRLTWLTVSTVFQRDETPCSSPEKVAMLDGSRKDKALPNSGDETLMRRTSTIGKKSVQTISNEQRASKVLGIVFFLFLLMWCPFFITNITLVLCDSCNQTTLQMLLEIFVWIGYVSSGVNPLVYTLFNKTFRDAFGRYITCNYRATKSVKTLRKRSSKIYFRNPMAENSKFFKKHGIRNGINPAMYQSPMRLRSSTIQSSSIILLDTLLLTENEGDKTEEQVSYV
- method: 5-HT receptor radioligand binding affinity assay, 2B
observed property: Ki (nM)

compound | target or system | observed property | unit abbreviation | quantitative result
C[C@@H](Oc1nc(N2CCCNCC2)ncc1F)c1cccc(F)c1 [10a] | 5-HT2B receptor (Homo sapiens, UniProt P41595) | Ki | nM | 83
C[C@@H]1CNCCN1c1ncc(F)c(O[C@H](C)c2ccc(F)cc2)n1 [compound 8, reference compound] | 5-HT2B receptor (Homo sapiens, UniProt P41595) | Ki | nM | 38
C[C@@H](Oc1nc(N2CCCNCC2)ncc1F)c1ccc(F)cc1 [10f] | 5-HT2B receptor (Homo sapiens, UniProt P41595) | Ki | nM | 118

* * *

- target or system: 5-HT2C receptor (Homo sapiens, UniProt P28335)
- Sequence (P28335 33-458): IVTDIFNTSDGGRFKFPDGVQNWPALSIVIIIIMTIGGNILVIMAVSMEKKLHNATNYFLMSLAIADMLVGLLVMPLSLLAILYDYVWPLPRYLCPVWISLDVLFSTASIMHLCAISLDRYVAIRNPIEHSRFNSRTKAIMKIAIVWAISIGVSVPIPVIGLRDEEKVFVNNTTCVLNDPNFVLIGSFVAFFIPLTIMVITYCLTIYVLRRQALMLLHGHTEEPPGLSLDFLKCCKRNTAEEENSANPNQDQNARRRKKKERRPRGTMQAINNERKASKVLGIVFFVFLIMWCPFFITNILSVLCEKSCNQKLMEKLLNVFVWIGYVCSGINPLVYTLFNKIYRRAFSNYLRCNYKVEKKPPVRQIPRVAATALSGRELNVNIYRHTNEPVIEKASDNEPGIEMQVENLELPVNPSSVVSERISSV
- method: 5-HT2C receptor cell-based functional assay (agonist mode, fluorescence-based)
- details: Table 2; serotonin as reference compound
# %activation per record follows
observed property: %activation (%)

compound | quantitative result
C[C@@H](Oc1nc(N[C@H]2CCNC2)ncc1F)c1cccc(F)c1 [10e] | 7.7
C[C@@H](Oc1nc(N[C@H]2CCNC2)ncc1F)c1ccc(F)cc1 [10j] | 0.1
C[C@@H](Oc1nc(N2CCCNCC2)ncc1F)c1ccc(F)cc1 [10f] | 52.4
C[C@@H](Oc1nc(N[C@@H]2CCNC2)ncc1F)c1cccc(F)c1 [10d] | 16.4
C[C@@H](Oc1nc(N2CCC3(CCNC3)C2)ncc1F)c1cccc(F)c1 (some centres unmarked) [10b] | 78.2

* * *

- target or system: 5-HT1B receptor (Homo sapiens, UniProt P28222)
- Construct: expressed in transfected cells; host or cells: HEK293 or CHO
- Sequence (P28222 whole entry): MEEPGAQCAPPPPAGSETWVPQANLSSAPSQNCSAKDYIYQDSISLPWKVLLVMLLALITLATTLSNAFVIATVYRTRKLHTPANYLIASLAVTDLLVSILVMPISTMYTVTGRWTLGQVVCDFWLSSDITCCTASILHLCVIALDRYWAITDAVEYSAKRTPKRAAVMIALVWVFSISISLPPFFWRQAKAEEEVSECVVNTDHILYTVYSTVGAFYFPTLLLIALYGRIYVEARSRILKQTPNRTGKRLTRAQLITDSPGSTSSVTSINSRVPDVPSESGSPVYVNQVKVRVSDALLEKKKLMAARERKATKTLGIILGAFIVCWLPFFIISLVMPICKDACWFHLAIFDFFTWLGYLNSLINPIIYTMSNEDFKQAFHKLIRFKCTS
- method: 5-HT receptor radioligand binding affinity assay, 1B

compound | Ki, nM
C[C@@H](Oc1nc(N2CCCNCC2)ncc1F)c1cccc(F)c1 [10a] | 3240

* * *

- target or system: 5-HT6 receptor (Homo sapiens)
- Construct: expressed in transfected cells; host or cells: HEK293 or CHO
- Sequence (P50406 whole entry): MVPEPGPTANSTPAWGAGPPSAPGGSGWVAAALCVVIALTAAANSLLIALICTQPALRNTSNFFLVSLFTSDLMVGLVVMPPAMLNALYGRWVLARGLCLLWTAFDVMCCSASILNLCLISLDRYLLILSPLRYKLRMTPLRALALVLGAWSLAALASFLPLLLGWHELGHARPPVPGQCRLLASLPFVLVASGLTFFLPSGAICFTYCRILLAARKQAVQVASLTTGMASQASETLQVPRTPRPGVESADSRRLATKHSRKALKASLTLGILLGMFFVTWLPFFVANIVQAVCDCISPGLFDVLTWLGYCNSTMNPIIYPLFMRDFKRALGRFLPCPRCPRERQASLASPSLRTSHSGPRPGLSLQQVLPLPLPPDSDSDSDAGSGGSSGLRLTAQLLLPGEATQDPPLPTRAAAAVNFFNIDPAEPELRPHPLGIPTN
- method: 5-HT receptor radioligand binding affinity assay, 6
observed property: Ki

compound | observed property | result
C[C@@H](Oc1nc(N2CCCNCC2)ncc1F)c1ccc(F)cc1 [10f] | Ki | 467 nM
C[C@@H](Oc1nc(N2CCCNCC2)ncc1F)c1cccc(F)c1 [10a] | Ki | 348 nM
C[C@@H]1CNCCN1c1ncc(F)c(O[C@H](C)c2ccc(F)cc2)n1 [compound 8, reference compound] | Ki | 30 nM
